Numbers sourced from PubChem BioAssay.

- system_under_test: Dihydroorotate dehydrogenase (quinone), mitochondrial (Plasmodium falciparum (isolate 3D7)) (UniProt Q08210)
- Sequence (Q08210 whole entry, looked up): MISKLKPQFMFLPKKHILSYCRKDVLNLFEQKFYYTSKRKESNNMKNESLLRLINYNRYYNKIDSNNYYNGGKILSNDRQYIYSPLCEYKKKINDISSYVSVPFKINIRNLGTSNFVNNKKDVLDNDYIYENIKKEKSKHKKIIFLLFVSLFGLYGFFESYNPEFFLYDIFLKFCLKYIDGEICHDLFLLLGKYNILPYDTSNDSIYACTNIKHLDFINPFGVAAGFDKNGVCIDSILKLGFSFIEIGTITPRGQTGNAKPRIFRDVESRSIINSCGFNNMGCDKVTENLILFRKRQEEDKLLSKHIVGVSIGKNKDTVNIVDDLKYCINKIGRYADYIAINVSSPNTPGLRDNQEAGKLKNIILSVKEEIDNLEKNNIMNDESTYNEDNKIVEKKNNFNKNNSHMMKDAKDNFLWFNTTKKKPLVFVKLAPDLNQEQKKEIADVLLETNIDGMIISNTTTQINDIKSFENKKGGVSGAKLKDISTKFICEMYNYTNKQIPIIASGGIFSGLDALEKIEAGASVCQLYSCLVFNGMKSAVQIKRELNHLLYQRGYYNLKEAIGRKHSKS
- protocol_summary: inhibition of P. falciparum DHODH – biochemical, C-terminal His tag, absorbance 600 nm, primary screen (AID 1175);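 further: recombinant parasite enzyme with a five histidine tag at its C terminus; test concentration not given here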
- particulars: PfDHODH enzyme, DCIP absorbance 600 nm; higher = more signal, called active from +8 up or from −8 down
Assignment: determine reported composite z-score for the given compounds.
Answers are plain numbers.

Example results:
compound	experimental_value
COCC(=C=CC[C@@H](O)c1ccccc1OCCO)C[C@@H](O)c1ccccn1	-10.8
CN(C)CCCC[C@@H]1NC(=O)[C@H]2C[C@@H](C(=O)NCCCCCCNC(=O)CS)[C@@H](c3ccc(O)cc3)N2C1=O	-0.368
C=CCC(OC(C)=O)[C@@H]1[C@@H](N(Cc2cccc3ccccc23)C(=O)c2ccc(C)cc2)c2cc(OCCCO)ccc2N1C(=O)c1ccc2ccccc2c1 (stereo partly drawn)	-1.86

I'm hoping you can list composite z-score for every compound here, please.
1. COc1ccc(C(=O)Nc2ccc(CN3C(=O)[C@]4(O[C@H](CCn5cc([C@H](O)c6ccccc6)nn5)[C@@H]([Si](C)(C)c5ccc(OC)cc5)[C@@H]4C)c4ccccc43)cc2)cc1
2. CCCCCCCCCCC(O)C1C=CC2C(=O)NC(=O)C2N1Nc1ccccn1 (stereo not drawn)
3. O=C1NC(=O)C2C1C=CC(C(O)c1ccc(-c3ccccc3)s1)N2Nc1ccccn1 (stereo not drawn)
4. CCCCC=C[C@@H](NC(=O)CCc1ccccc1)c1ccccc1
5. O=C1OCC=C[C@H]2OC34C=CCN(CCN5CCOCC5)C(=O)[C@H]3N(CCCCCO)C(=O)[C@@H]4[C@@H]12 (stereo partly drawn)
6. CC(C)c1ccc(NN2C(C(O)c3ccccn3)C=CC3C(=O)N(c4ccccc4)C(=O)C32)cc1 (stereo not drawn)
7. COC(=O)[C@@]1(Cc2ccccc2)[C@H]2c3cc(C(=O)N(C)C)n(Cc4ccccn4)c3C[C@H]2CN1C(=O)c1ccccc1
8. Cc1ccc(-c2cccc(=O)o2)cc1

1. -0.0934
2. 0.364
3. 1.24
4. -0.739
5. 0.31
6. 1.87
7. 0.611
8. -0.919

Your task in this section: give composite z-score for each listed record.
1. COCCOC(=O)N1C(=O)[C@@]2(c3cc(C#CCCO)ccc31)[C@H](C(=O)NC[C@H](O)c1ccccc1)[C@H]1C(=O)O[C@H](c3ccccc3)[C@H](c3ccccc3)N1[C@@H]2c1ccccc1OCCO
2. CN(C)C(=O)[C@@]1(Cc2ccccc2N=[N+]=[N-])N=C(c2ccc(OCCCO)cc2)O[C@H]1c1ccccc1N=[N+]=[N-]
3. CC1CC/C=C\[C@H]2OC34C=CCN(c5ccc(Cl)cc5)C(=O)[C@H]3N(C(CO)C(C)C)C(=O)[C@]4(C)C2C(=O)O1 (stereo partly drawn)
4. NC(=O)[C@H]1[C@@H]2C(=O)O[C@@H](c3ccccc3)[C@@H](c3ccccc3)N2[C@@H](c2ccc(O)cc2)[C@]12C(=O)Nc1ccc(C#CC3(O)CCCCCC3)cc12
5. COCCOC(=O)N1C(=O)[C@@]2(c3cc(C#Cc4ccc(OC)cc4)ccc31)[C@H](C(=O)N1CCc3cc(OC)c(OC)cc3C1)[C@H]1C(=O)O[C@H](c3ccccc3)[C@H](c3ccccc3)N1[C@@H]2c1ccc(OCCO)cc1
6. C=C(/C(=C/C[C@@H](OC(C)=O)c1ccccc1OCCO)c1cnc2ccccc2c1)C(C)C
7. O=C1O[C@H](c2ccccc2)[C@H](c2ccccc2)N2[C@H]1[C@@H](C(=O)N1CCCCCCC1)[C@]1(C(=O)Nc3ccccc31)[C@H]2c1ccc(O)cc1
8. Cc1ccc(S[C@]2(C(=O)O)CC(=O)N(Cc3ccccc3C(F)(F)F)[C@@H]2c2ccc(CO)cc2)cc1

1: 0.246; 2: 1.32; 3: -2.37; 4: -0.885; 5: -0.0739; 6: -5.68; 7: 0.64; 8: 0.52

For each of the items listed, what is its composite z-score?
1. CN(C)C(=O)[C@]1(Cc2ccccc2N=[N+]=[N-])N=C(c2ccc(OCCCO)cc2)O[C@@H]1c1ccccc1CN=[N+]=[N-]
2. COCCCNC(=O)[C@]1(Cc2ccccc2CN=[N+]=[N-])N=C(c2ccc(OCCCO)cc2)O[C@@H]1c1ccccc1CN=[N+]=[N-]
3. Cc1cc(C)c(C(O)C2C=CC3C(=O)N(c4ccccc4)C(=O)C3N2Nc2ccc([N+](=O)[O-])cc2)c(C)c1 (stereo not drawn)
4. CCN(CC)c1ccc(N2CC=CC34O[C@@H]5/C=C\CCCOC(=O)C5[C@H]3C(=O)N(CCCCCO)[C@@H]4C2=O)cc1 (stereo partly drawn)

-0.106
0.502
-0.212
-0.706
